# DR/DR LNA values compiled below
assay: Probe fluorescence ratio response to linolenic acid relative to ADIFAB2; assay type: binding; settings: response relative to ADIFAB2
Form field (numeric): enter value without unit.

Past entries and their recorded results:
{"molecule": "14N, 72A (protein, listed as Rattus norvegicus, PEPTIDE (1)...(131) wild-type rat intestinal fatty acid binding protein) AFDGTWKVDRNENNEKFMEKMGINVVKRKLGAHDNLKLTITQEGNKFTVKESSNFRNIDVVFELGVDFAYSAADGTELTGTWTMEGNKLVGKFKRVDNGKELIAVREISGNELIQTYTYEGVEAKRIFKKE", "measured attribute": "DR/DR LNA", "readout value": 0.53}
{"molecule": "73G, 72A (protein, listed as Rattus norvegicus, PEPTIDE (1)...(131) wild-type rat intestinal fatty acid binding protein) AFDGTWKVDRNENYEKFMEKMGINVVKRKLGAHDNLKLTITQEGNKFTVKESSNFRNIDVVFELGVDFAYSAGDGTELTGTWTMEGNKLVGKFKRVDNGKELIAVREISGNELIQTYTYEGVEAKRIFKKE", "measured attribute": "DR/DR LNA", "readout value": 0.53}
{"molecule": "74S 72A 73F (protein, listed as Rattus norvegicus, PEPTIDE (1)...(131) wild-type rat intestinal fatty acid binding protein) AFDGTWKVDRNENYEKFMEKMGINVVKRKLGAHDNLKLTITQEGNKFTVKESSNFRNIDVVFELGVDFAYSAFSGTELTGTWTMEGNKLVGKFKRVDNGKELIAVREISGNELIQTYTYEGVEAKRIFKKE", "measured attribute": "DR/DR LNA", "readout value": 1.433}
{"molecule": "36F1, 72A (protein, listed as Rattus norvegicus, PEPTIDE (1)...(131) wild-type rat intestinal fatty acid binding protein) AFDGTWKVDRNENYEKFMEKMGINVVKRKLGAHDNFKLTITQEGNKFTVKESSNFRNIDVVFELGVDFAYSAADGTELTGTWTMEGNKLVGKFKRVDNGKELIAVREISGNELIQTYTYEGVEAKRIFKKE", "measured attribute": "DR/DR LNA", "readout value": 0.66}

In: Hello, please tell me recorded DR/DR LNA for this one: 14I 38I 72V (protein, listed as Rattus norvegicus, PEPTIDE (1)...(131) wild-type rat intestinal fatty acid binding protein) AFDGTWKVDRNENIEKFMEKMGINVVKRKLGAHDNLKITITQEGNKFTVKESSNFRNIDVVFELGVDFAYSVADGTELTGTWTMEGNKLVGKFKRVDNGKELIAVREISGNELIQTYTYEGVEAKRIFKKE
Out: 0.926

In: Hello, please tell me recorded DR/DR LNA for this one: 72G 73F 74N (protein, listed as Rattus norvegicus, PEPTIDE (1)...(131) wild-type rat intestinal fatty acid binding protein) AFDGTWKVDRNENYEKFMEKMGINVVKRKLGAHDNLKLTITQEGNKFTVKESSNFRNIDVVFELGVDFAYSGFNGTELTGTWTMEGNKLVGKFKRVDNGKELIAVREISGNELIQTYTYEGVEAKRIFKKE
Out: 1.367

In: Hello, please tell me recorded DR/DR LNA for this one: 49M1, 72A (protein, listed as Rattus norvegicus, PEPTIDE (1)...(131) wild-type rat intestinal fatty acid binding protein) AFDGTWKVDRNENYEKFMEKMGINVVKRKLGAHDNLKLTITQEGNKFTMKESSNFRNIDVVFELGVDFAYSAADGTELTGTWTMEGNKLVGKFKRVDNGKELIAVREISGNELIQTYTYEGVEAKRIFKKE
Out: 1.37

In: Hello, please tell me recorded DR/DR LNA for this one: 72T 73V 74L (protein, listed as Rattus norvegicus, PEPTIDE (1)...(131) wild-type rat intestinal fatty acid binding protein) AFDGTWKVDRNENYEKFMEKMGINVVKRKLGAHDNLKLTITQEGNKFTVKESSNFRNIDVVFELGVDFAYSTVLGTELTGTWTMEGNKLVGKFKRVDNGKELIAVREISGNELIQTYTYEGVEAKRIFKKE
Out: 3.508

In: Hello, please tell me recorded DR/DR LNA for this one: 36H1, 72A (protein, listed as Rattus norvegicus, PEPTIDE (1)...(131) wild-type rat intestinal fatty acid binding protein) AFDGTWKVDRNENYEKFMEKMGINVVKRKLGAHDNHKLTITQEGNKFTVKESSNFRNIDVVFELGVDFAYSAADGTELTGTWTMEGNKLVGKFKRVDNGKELIAVREISGNELIQTYTYEGVEAKRIFKKE
Out: 0.86

In: Hello, please tell me recorded DR/DR LNA for this one: 73N, 72A (protein, listed as Rattus norvegicus, PEPTIDE (1)...(131) wild-type rat intestinal fatty acid binding protein) AFDGTWKVDRNENYEKFMEKMGINVVKRKLGAHDNLKLTITQEGNKFTVKESSNFRNIDVVFELGVDFAYSANDGTELTGTWTMEGNKLVGKFKRVDNGKELIAVREISGNELIQTYTYEGVEAKRIFKKE
Out: 0.47

In: Hello, please tell me recorded DR/DR LNA for this one: 31W, 72A (protein, listed as Rattus norvegicus, PEPTIDE (1)...(131) wild-type rat intestinal fatty acid binding protein) AFDGTWKVDRNENYEKFMEKMGINVVKRKLWAHDNLKLTITQEGNKFTVKESSNFRNIDVVFELGVDFAYSAADGTELTGTWTMEGNKLVGKFKRVDNGKELIAVREISGNELIQTYTYEGVEAKRIFKKE
Out: 1.031
